biological target: T1, recombinant CD28 antigen (extracellular domain, expressed in mammalian cells) (UniProt P10747 19-152, limits assumed); assay: SPR (Biacore), CD28 ECD on CM5 chip, Fab as analyte at 50 ug/mL, 1:1 binding mass transfer model
T1 construct: extracellular domain; Immobilized on a CM5 chip by amine coupling; also called T-cell-specific surface glycoprotein CD28
parameter-measured: koff
Number first, unit second.

binder="huCD28_v4 Fab (humanized) (Fab, V domains shown, not shown: small tags and cut ends, Humanized 15E8 Fab expressed in E. coli periplasm) VH: QVQLQESGPGLVKPSETLSLTCTVSGFSLTSYGVHWIRQPPGKGLEWLGVIWAGGSTNYNSSLKSRVTISKDTSKNQVSLKLSSVTAADTAVYYCARDKRAPGKLYYGYPDYWGQGTTLTVSS VL: DIVMTQSPDSLAVSLGERATINCRASESVEYYVTSLMQWYQQKPGQPPKLLIYAASNVESGVPARFSGSGSGTDFTLTISPLQAEDVAVYYCQQTRKVPSTFGGGTKLEIKR" endpoint_value="0.021 s⁻¹"
binder="chCD28 Fab (chimeric) (Fab, V domains shown, Fab expressed in E. coli periplasm; not shown: Fabs were purified by IMAC) VH: QVQLKESGPGLVAPSQSLSITCTVSGFSLTSYGVHWVRQPPGKGLEWLGVIWAGGSTNYNSALMSRLSISKDNSKSQVFLKMNSLQTDDTAMYYCARDKRAPGKLYYGYPDYWGQGTTLTVSS VL: DIVLTQSPASLAVSLGQRATISCRASESVEYYVTSLMQWYQQKPGQPPKLLIYAASNVESGVPARFSGSGSGTDFSLNIHPVEEDDIAMYFCQQTRKVPSTFGGGTKLEIKR" endpoint_value="0.032 s⁻¹"
binder="huCD28_v3 Fab (humanized) (Fab, V domains shown, not shown: small tags and cut ends, Humanized 15E8 Fab expressed in E. coli periplasm) VH: QVQLQESGPGLVKPSETLSLTCTVSGFSLTSYGVHWIRQPPGKGLEWLGVIWAGGSTNYNSSLKSRVTISKDTSKNQVFLKLSSVTADDTAVYYCARDKRAPGKLYYGYPDYWGQGTTLTVSS VL: DIVMTQSPDSLAVSLGERATINCRASESVEYYVTSLMQWYQQKPGQPPKLLIYAASNVESGVPARFSGSGSGTDFTLTISPLQAEDVAVYYCQQTRKVPSTFGGGTKLEIKR" endpoint_value="0.026 s⁻¹"

Prompt: Name the recorded koff for huCD28_v2 Fab (humanized) (Fab, V domains shown, not shown: small tags and cut ends, Humanized 15E8 Fab expressed in E. coli periplasm) VH: QVQLQESGPGLVKPSETLSLTCTVSGFSLTSYGVHWVRQPPGKGLEWIGVIWAGGSTNYNPSLKSRVTISKDTSKNQFSLKLSSVTAADTAVYYCARDKRAPGKLYYGYPDYWGQGTTLTVSS VL: DIVMTQSPDSLAVSLGERATINCKSSESVEYYVTSLLQWYQQKPGQPPKLLIYAASNRESGVPDRFSGSGSGTDFTLTISSLQAEDVAVYYCQQTRKVPSTFGGGTKLEIKR .
Response: 0.055 s⁻¹

Prompt: Bench note: what koff did huCD28_v1 Fab (humanized) (Fab, V domains shown, not shown: small tags and cut ends, Humanized 15E8 Fab expressed in E. coli periplasm) VH: QVQLQESGPGLVKPSETLSLTCTVSGFSLTSYGVHWVRQPPGKGLEWLGVIWAGGSTNYNSALMSRLTISKDTSKNQVSLKLSSVTAADTAVYYCARDKRAPGKLYYGYPDYWGQGTTLTVSS VL: DIVMTQSPDSLAVSLGERATINCRASESVEYYVTSLMQWYQQKPGQPPKLLIYAASNVESGVPDRFSGSGSGTDFTLTISSLQAEDVAVYYCQQTRKVPSTFGGGTKLEIKR show?
Response: 0.08 s⁻¹

Value source: patent US20180112000A1
